Reported values of DT50 in 1 mM NaN3, No DTT for individual entries
# MEASUREMENT NOTES: Photochemical cleavage assays of incorporated nucleotide analogs (365 nm UV light, DT50)
# Format: physicochemical
# TEST CONTEXT: Table 3, reversible terminators; 1 mM NaN3, no DTT; 365 nm UV, 0.70 W/cm^2; [a] transient product considered as cleaved product
ENDPOINT NAME: DT50 in 1 mM NaN3, No DTT (s)

COMPOUND: Nc1nc2c(c(COCc3ccccc3[N+](=O)[O-])cn2[C@H]2C[C@H](O)[C@@H](COP(=O)(O)OP(=O)(O)OP(=O)(O)O)O2)c(=O)[nH]1 [dG.I]
OUTPUT UNIT: s
RECORDED MEASUREMENT: 9.2
--
COMPOUND: Nc1nc(=O)n([C@H]2C[C@H](O)[C@@H](COP(=O)(O)OP(=O)(O)OP(=O)(O)O)O2)cc1COCc1ccccc1[N+](=O)[O-] [dC.I]
OUTPUT UNIT: s
RECORDED MEASUREMENT: 2.0
--
COMPOUND: Nc1ncnc2c1c(COCc1ccccc1[N+](=O)[O-])cn2[C@H]1C[C@H](O)[C@@H](COP(=O)(O)OP(=O)(O)OP(=O)(O)O)O1 [dA.I]
OUTPUT UNIT: s
RECORDED MEASUREMENT: 3.6

====

# MEASUREMENT NOTES: Photochemical cleavage assays of incorporated nucleotide analogs (365 nm UV light, DT50)
# Type: physicochemical
# TEST CONTEXT: Table 3, reversible terminators; 1 mM NaN3, no DTT; 365 nm UV, 0.70 W/cm^2; [a] transient product considered as cleaved product
Below, each entry is listed with its recorded DT50 in 1 mM NaN3, No DTT.
ENDPOINT NAME: DT50 in 1 mM NaN3, No DTT (s)

SMILES STR: COc1ccc([N+](=O)[O-])c([C@@H](OCc2cn([C@H]3C[C@H](O)[C@@H](COP(=O)(O)OP(=O)(O)OP(=O)(O)O)O3)c3nc(N)[nH]c(=O)c23)C(C)(C)C)c1
RECORDED MEASUREMENT: 0.8

SMILES STR: CC(C)(C)[C@H](OCc1cn([C@H]2C[C@H](O)[C@@H](COP(=O)(O)OP(=O)(O)OP(=O)(O)O)O2)c2ncnc(N)c12)c1ccccc1[N+](=O)[O-]
RECORDED MEASUREMENT: 2.1

SMILES STR: CC(C)(C)[C@H](OCc1cn([C@H]2C[C@H](O)[C@@H](COP(=O)(O)OP(=O)(O)OP(=O)(O)O)O2)c(=O)nc1N)c1ccccc1[N+](=O)[O-]
RECORDED MEASUREMENT: 1.2

====

# MEASUREMENT NOTES: Photochemical cleavage assays of incorporated nucleotide analogs (365 nm UV light, DT50)
# Format: physicochemical
# TEST CONTEXT: Table 3, reversible terminators; 1 mM NaN3, no DTT; 365 nm UV, 0.70 W/cm^2; [a] transient product considered as cleaved product
Measured DT50 in 1 mM NaN3, No DTT of individual entries
ENDPOINT NAME: DT50 in 1 mM NaN3, No DTT

SMILES STR: CC(C)(C)[C@H](OCc1cn([C@H]2C[C@H](O)[C@@H](COP(=O)(O)OP(=O)(O)OP(=O)(O)O)O2)c2nc(N)[nH]c(=O)c12)c1ccccc1[N+](=O)[O-]
RECORDED MEASUREMENT: 3.0 ± 0.1 s

SMILES STR: COc1ccc([N+](=O)[O-])c([C@@H](OCc2cn([C@H]3C[C@H](O)[C@@H](COP(=O)(O)OP(=O)(O)OP(=O)(O)O)O3)c(=O)[nH]c2=O)C(C)(C)C)c1
RECORDED MEASUREMENT: 0.7 ± 0.1^[a] sec

SMILES STR: COc1ccc([N+](=O)[O-])c([C@@H](OCc2cn([C@H]3C[C@H](O)[C@@H](COP(=O)(O)OP(=O)(O)OP(=O)(O)O)O3)c3ncnc(N)c23)C(C)(C)C)c1
RECORDED MEASUREMENT: 0.8 ± 0.1^[a] sec
